I'd be grateful if you could share measured pIC50 for these entries.
# Tested on: A2780cis cell line
# assay.text: Cell viability by ATP dosage (ATPlite), 72 h continuous exposure, A2780cis
# Assay type: cell-based
# condition.info: A2780cis cells, continuous exposure 72 hours, viable cells by ATP dosage
Bear in mind: pIC50 is minus log10 of a mol/L concentration; give just that figure.

Lookup: Suppose we examine the molecule CC(=O)O[C@H]1C(=O)[C@@]2(C)[C@H]([C@H](OC(=O)c3ccccc3)[C@]34OC(=O)O[C@H]3[C@H](OC(=O)[C@](C)(O)[C@@H](NC(=O)OC(C)(C)C)c3ccccc3)C(C)=C1C4(C)C)[C@]1(OC(C)=O)CO[C@@H]1C[C@@H]2O [Es. 2] ; what pIC50 value has been reported?
Found: 8.77

Lookup: State the recorded pIC50 for this entry: CC(=O)O[C@H]1C(=O)[C@@]2(C)[C@H]([C@H](OC(=O)c3ccccc3)[C@]34OC(=O)O[C@H]3[C@H](OC(=O)[C@](C)(O)[C@@H](NC(=O)OC(C)(C)C)c3ccco3)C(C)=C1C4(C)C)[C@]1(OC(C)=O)CO[C@@H]1C[C@@H]2O [Es. 4]
Found: 8.60

Lookup: Suppose we examine the molecule CC(=O)OC1C(=O)C2(C)C(O)CC3OCC3(OC(C)=O)C2C(OC(=O)c2ccccc2)C2(O)CC(OC(=O)C(C)(O)C(NC(=O)c3ccccc3)c3ccco3)C(C)=C1C2(C)C (centres unmarked) [Es. 1] ; what pIC50 value has been reported?
Found: 8.54

Lookup: Which pIC50 reading was recorded for the molecule CC(=O)O[C@H]1C(=O)[C@@]2(C)[C@H]([C@H](OC(=O)c3ccccc3)[C@]3(O)C[C@H](OC(=O)[C@](C)(O)[C@@H](NC(=O)OC(C)(C)C)c4ccco4)C(C)=C1C3(C)C)[C@]1(OC(C)=O)CO[C@@H]1C[C@@H]2O [Es. 3] ?
Found: 8.48

Lookup: I am curious: what pIC50 value has been reported for CC(=O)O[C@H]1C(=O)[C@@]2(C)[C@H]([C@H](OC(=O)c3ccccc3)[C@]34OC(=O)O[C@H]3[C@H](OC(=O)[C@](C)(O)[C@@H](NC(=O)OC(C)(C)C)C(F)(F)F)C(C)=C1C4(C)C)[C@]1(OC(C)=O)CO[C@@H]1C[C@@H]2O [Es. 5] ?
Found: 8.55
